# experiment: Partition coefficient (logP)
# conditionsUsed: octanol/water, logP
Kindly state logP for each of the entries shown.
Please state the value as a number alone, without comment.

Reported logP for CCCCCN(CCCCC)/N=C/c1cc2c3c4c(C)c(O)c2c(O)c1NC(=O)/C(C)=C\C=C\C(C)C(O)C(C)C(O)C(C)C(OC(C)=O)C(C)C(OC)/C=C/OC(C)(O4)C3=O (stereo unspecified) was 3.47

Reported logP for COC1/C=C/OC2(C)Oc3c(C)c(O)c4c(O)c(c(/C=N/N5CCCCCCCCCCCC5)cc4c3C2=O)NC(=O)/C(C)=C\C=C\C(C)C(O)C(C)C(O)C(C)C(OC(C)=O)C1C (stereo in doubt; 17) was 4.75

Reported logP for CCN(CC)Cc1cc2c3c4c(C)c(O)c2c(O)c1NC(=O)/C(C)=C\C=C\C(C)C(O)C(C)C(O)C(C)C(OC(C)=O)C(C)C(OC)/C=C/OC(C)(O4)C3=O (stereo unspecified) was 1.55

Reported logP for COC1/C=C/OC2(C)Oc3c(C)c(O)c4c(O)c(c(/C=N/N5CCCCCCCCCC5)cc4c3C2=O)NC(=O)/C(C)=C\C=C\C(C)C(O)C(C)C(O)C(C)C(OC(C)=O)C1C (stereo unspecified) was 4.05

Reported logP for CCCCCCCCN(CCCCCCCC)/N=C/c1cc2c3c4c(C)c(O)c2c(O)c1NC(=O)/C(C)=C\C=C\C(C)C(O)C(C)C(O)C(C)C(OC(C)=O)C(C)C(OC)/C=C/OC(C)(O4)C3=O (stereo in doubt; 35) was 3.6

Reported logP for CCCCCCCCO/N=C/c1cc2c3c4c(C)c(O)c2c(O)c1NC(=O)/C(C)=C\C=C\C(C)C(O)C(C)C(O)C(C)C(OC(C)=O)C(C)C(OC)/C=C/OC(C)(O4)C3=O (stereo unspecified) was 5.2

Reported logP for COC1/C=C/OC2(C)Oc3c(C)c(O)c4c(O)c(c(C=O)cc4c3C2=O)NC(=O)/C(C)=C\C=C\C(C)C(O)C(C)C(O)C(C)C(OC(C)=O)C1C (stereo unspecified) was 0.13

Reported logP for COC1/C=C/OC2(C)Oc3c(C)c(O)c4c(O)c(c(/C=N/N5CCCCCCCCCCCCCCC5)cc4c3C2=O)NC(=O)/C(C)=C\C=C\C(C)C(O)C(C)C(O)C(C)C(OC(C)=O)C1C (stereo in doubt; 18) was 6.05

Reported logP for COC1/C=C/OC2(C)Oc3c(C)c(O)c4c(O)c(c(/C=N/N5CCNCC5)cc4c3C2=O)NC(=O)/C(C)=C\C=C\C(C)C(O)C(C)C(O)C(C)C(OC(C)=O)C1C (stereo unspecified) was 1.12

Reported logP for COC1/C=C/OC2(C)Oc3c(C)c(O)c4c(O)c(c(/C=N/N5C(C)CC(Cc6ccccc6)CC5C)cc4c3C2=O)NC(=O)/C(C)=C\C=C\C(C)C(O)C(C)C(O)C(C)C(OC(C)=O)C1C (stereo unspecified) was 6.3

Reported logP for COC1/C=C/OC2(C)Oc3c(C)c(O)c4c(O)c(c(CN5CCNCC5)cc4c3C2=O)NC(=O)/C(C)=C\C=C\C(C)C(O)C(C)C(O)C(C)C(OC(C)=O)C1C (stereo unspecified) was 1.76

Reported logP for COC1/C=C/OC2(C)Oc3c(C)c(O)c4c(O)c(c(/C=N/N5C(C)CN(Cc6ccccc6)CC5C)cc4c3C2=O)NC(=O)/C(C)=C\C=C\C(C)C(O)C(C)C(O)C(C)C(OC(C)=O)C1C (stereo unspecified) was 4.28

Reported logP for COC1/C=C/OC2(C)Oc3c(C)c(O)c4c(O)c(c(/C=N/N5CCN(Cc6ccccc6)CC5)cc4c3C2=O)NC(=O)/C(C)=C\C=C\C(C)C(O)C(C)C(O)C(C)C(OC(C)=O)C1C (stereo unspecified) was 3.36

Reported logP for CCCN(CCC)/N=C/c1cc2c3c4c(C)c(O)c2c(O)c1NC(=O)/C(C)=C\C=C\C(C)C(O)C(C)C(O)C(C)C(OC(C)=O)C(C)C(OC)/C=C/OC(C)(O4)C3=O (stereo unspecified) was 3.85

Reported logP for COC1/C=C/OC2(C)Oc3c(C)c(O)c4c(O)c(c(/C=N/OC(c5ccccc5)c5ccccc5)cc4c3C2=O)NC(=O)/C(C)=C\C=C\C(C)C(O)C(C)C(O)C(C)C(OC(C)=O)C1C (stereo unspecified) was 4.96

Reported logP for COC1/C=C/OC2(C)Oc3c(C)c(O)c4c(O)c(c(/C=N/N5CCCC5)cc4c3C2=O)NC(=O)/C(C)=C\C=C\C(C)C(O)C(C)C(O)C(C)C(OC(C)=O)C1C (stereo unspecified) was 2.75

Reported logP for CCCCCCN(CCCCCC)/N=C/c1cc2c3c4c(C)c(O)c2c(O)c1NC(=O)/C(C)=C\C=C\C(C)C(O)C(C)C(O)C(C)C(OC(C)=O)C(C)C(OC)/C=C/OC(C)(O4)C3=O (stereo unspecified) was 3.51

Reported logP for COC1/C=C/OC2(C)Oc3c(C)c(O)c4c(O)c(c(/C=N/N5CCCCCCCC5)cc4c3C2=O)NC(=O)/C(C)=C\C=C\C(C)C(O)C(C)C(O)C(C)C(OC(C)=O)C1C (stereo unspecified) was 3.45

Reported logP for COC1/C=C/OC2(C)Oc3c(C)c(O)c4c(O)c(c(O)cc4c3C2=O)NC(=O)/C(C)=C\C=C\C(C)C(O)C(C)C(O)C(C)C(OC(C)=O)C1C (stereo unspecified) was 0.11

Reported logP for COC1/C=C/OC2(C)Oc3c(C)c(O)c4c(O)c(c(/C=N/N5CCCCCC5)cc4c3C2=O)NC(=O)/C(C)=C\C=C\C(C)C(O)C(C)C(O)C(C)C(OC(C)=O)C1C (stereo unspecified) was 2.75

Reported logP for `NN1CCNCC1` was -0.29
